# methodSummary: Plasma pharmacokinetics after IV bolus, non-compartmental analysis
# Format: in vivo, mouse
# conditionParameters: mouse, plasma; healthy male DBA1/J mice, IV bolus, Mean ± SEM
readoutType: clearance (mL/min)

{"columns": ["molecule", "measurementUnits", "clearance"],
 "data": [
  ["CC1(C)C(/C=C/C2=C(Oc3ccc(S(=O)(=O)O)cc3)C(=C/C=C3/N(CCCCS(=O)(=O)O)c4ccc(S(=O)(=O)O)cc4C3(C)C)/CCC2)=[N+](CCCCCC(=O)N2CCN(CCCOc3ccc4nccc(C(=O)NCC(=O)N5CC(F)(F)C[C@H]5C#N)c4c3)CC2)c2ccc(S(=O)(=O)O)cc21.O=C([O-])C(F)(F)F [FAPI-800CW]", "mL/min", 0.0638]
]}

A: N#C[C@@H]1CC(F)(F)CN1C(=O)CNC(=O)c1ccnc2ccc(OCCCN3CCNCC3)cc12
B: N#CC1CC(F)(F)CN1C(=O)CNC(=O)c1ccnc2ccc(OCCCN3CCN(C(=O)C(N)CCC(=O)NCCOCCOCC(=O)NCc4ccc(S(=O)(=O)NC(=O)c5ccc(-c6ccc(C(F)(F)F)cc6)cc5)cc4)CC3)cc12 (stereo not drawn)
Problem: Of A and B , whose reported clearance is numerically smaller? Respond with the label that goes with your answer.
Result: B
(B: 0.42 mL/min, A: 3.9 mL/min)
